- SYSTEM TESTED: UniProt P07607
- Sequence (P07607 whole entry): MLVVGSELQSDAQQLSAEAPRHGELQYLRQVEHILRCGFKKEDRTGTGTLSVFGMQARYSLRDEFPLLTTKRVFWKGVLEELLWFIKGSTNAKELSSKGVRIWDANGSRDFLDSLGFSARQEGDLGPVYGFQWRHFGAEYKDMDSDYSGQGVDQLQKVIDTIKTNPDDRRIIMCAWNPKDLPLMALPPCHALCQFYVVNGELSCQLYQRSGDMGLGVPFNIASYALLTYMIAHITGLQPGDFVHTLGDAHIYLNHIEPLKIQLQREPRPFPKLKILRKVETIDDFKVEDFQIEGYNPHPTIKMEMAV
- ASSAY: Ability to inhibit Thymidylate synthase purified from mouse L1210 leukemia cells that overproduce thymidylate synthase (TS)
PARAMETER MEASURED: IC50 (nM)

Use the examples below as a reference point.
{"CHEM SMILES": "C#CCN(Cc1cc2c(O)nc(C)nc2cc1C)c1ccc(C(=O)N[C@@H](C(=O)O)C(C)(C)C)c(F)c1", "SYSTEM TESTED": "UniProt P07607", "IC50 / nM": 7}
{"CHEM SMILES": "C#CCN(Cc1cc2c(O)nc(C)nc2cc1C)c1ccc(C(=O)NCc2cncs2)c(F)c1", "SYSTEM TESTED": "UniProt P07607", "IC50 / nM": 110}

[a] C#CCN(Cc1ccc2nc(C)nc(O)c2c1)c1ccc(C(=O)NCc2nccs2)cc1
[b] C#CCN(Cc1ccc2nc(C)nc(O)c2c1)c1ccc(C(=O)NCc2cscn2)cc1
Rank a against b by their IC50 values and give the higher one. Your choice should be expressed through its label.
b
(b: 1720 nM, a: 760 nM)
